- System: breast cancer cell line T47D
- assay text: MTT cancer cell cytotoxicity assay, T47D
- Format: cell-based, human
- condition info: Homo sapiens, T47D cells, 48-72 h
endpoint: IC50

Here's what some known entries look like.
INSERT INTO assay_data (smiles_str, system_under_test, measured_result) VALUES
  ('COc1ccccc1-c1nnc2ccc(-c3cc(OC)c(OC)c(OC)c3)cn12', 'breast cancer cell line T47D', '> 10 µM'),
  ('COc1ccccc1-c1nnc2ccc(-c3cccc(O)c3)cn12', 'breast cancer cell line T47D', '> 10 µM');

Consider now this further molecule.
Given item `COc1ccc(-c2ccc3nnc(-c4cc(S(N)(=O)=O)ccc4OC)n3c2)cc1` , the value recorded as its IC50 is > 10 µM

###

- Test system: breast cancer cell line T47D
- assay text: MTT cancer cell cytotoxicity assay, T47D
- Type: cell-based, human
- condition info: Homo sapiens, T47D cells, 48-72 h
pIC50: −log10 of the molar value.
endpoint: pIC50

Use the examples below as a reference point.
INSERT INTO assay_data (smiles_str, measured_result) VALUES
  ('COc1ccccc1-c1nnc2ccc(-c3ccc([N+](=O)[O-])c(OC)c3)cn12', '< 5.00'),
  ('CCCCCCOc1ccc(-c2ccc3nnc(-c4ccccc4OC)n3c2)cc1', '< 5.00');

Moving on to the next molecule.
So for `COc1ccccc1-c1ccc2nnc(-c3ccccc3OC)n2c1` , the logged pIC50 turned out to be < 5.00
